Provenance of the data: paper PMC5454392

Target: human Brd4 BD1 (Homo sapiens, UniProt O60885)
Assay: Isothermal titration calorimetry (ITC)
pKd: −log10 of the molar value.
Measure: pKd

- Compound: "CN1C(=O)c2ccccc2Sc2cc(NC(=O)C3CCCO3)ccc21 (stereo not shown) [Compound 3]"
  Numeric Value: 4.87

###

Target: human Brd4 BD2 (Homo sapiens, UniProt O60885)
Construct: GST-tagged human Brd4 BD2 (residues 349–460) was purchased from Reaction Biology Corp
Assay: HTRF assay, inhibition of BD binding to H4ac4 peptide
Measure: IC50

- Smiles Representation: "Cc1ccc(Nc2c(-c3ccc(O)cc3)nc3c(C)cccn23)cc1"
  Study System: "human Brd4 BD2 (Homo sapiens, UniProt O60885)"
  Result: "≥ 40 µM"
